Data provenance: patent US20030064916A1

target: HLA-A2.1 (human, UniProt A*02:01); experiment: competition on EA2 cells: test peptide (100 mM [sic]) vs M1 58-66 (1 mM [sic]); % inhibition of CTL clone 12 lysis, E:T 0.3:1
property label: % inhibition of A2.1-binding of M1 (58-66) (%)
Numbers only, in %.

Example entries and their recorded answers appear below.
* ITLEDSSGNL [hu-wt-p53 255-264] | 24
* RMPEAAPPV (also called hu-wt-p53 65-73; hu-p53.65-73) [p53.65-73] | 62
* LMLSPDDIEQ [hu-wt-p53 43-52] | 25
* AAPPVAPAPAA [hu-wt-p53 69-79] | 4
* GTAKSVTCT [hu-wt-p53 117-125] | 12
* VLSPLPSQAM [hu-wt-p53 31-40] | 23
* EMFRELNEA [hu-wt-p53 339-247] | 12
* VLSPLPSQA [hu-wt-p53 31-39] | 38

Here are 2 binders. What values of % inhibition of A2.1-binding of M1 (58-66) were reported for them?
1. WVDSTPPPGT [hu-wt-p53 146-155]
2. NTFRHSVVV [hu-wt-p53 210-218]

Output:
1: 10; 2: 43
